Data origin: PubChem BioAssay (NCI)

tested on: RXF 393 renal; assay: NCI tumour cell line growth inhibition, 48 h
observed.property: TGI

>>> reported_value("COc1cc(OC)c(/C=C\\c2ccnc3ccccc23)c(OC)c1")
"11.6 µM"
>>> reported_value("CCN1C(=O)N(CC)C2Nn3c(s/c(=C\\c4ccccc4Br)c3=O)=NC21 (stereo not given)")
"6.91 µM"
>>> reported_value("Cc1ccc(-c2cc(C(F)(F)F)nn2-c2ccc(S(N)(=O)=O)cc2)cc1")
"36 µM"
>>> reported_value("Cc1cc2c(cc1C)[n+](=O)c(C(=O)C/C(=N/OCCCc1ccccc1)C(=O)Nc1cc(Cl)ccc1Cl)c(C)n2[O-]")
"> 100 µM"

Continue with the molecule presented below.
In: Any idea what TGI was measured for S=C1CC(c2ccccc2)Sc2ccccc2N1 (stereo not given) ?
Out: 75.8 µM
